Known ILS of a selection of compounds
Test system: Mus musculus
assay-remarks: Antitumor activity against ip implanted L1210 leukemia in mouse after ip administration of 10 mg/kg for 5 days expressed as increase in mean life span
Type: functional
conditions-used: route intraperitoneal, 10 mg/kg
Express the result in % but write the number alone.

[[record]]
compound = "Cc1c2cc[n+]([C@H]3O[C@@H](CO)[C@H](O)[C@@H](O)[C@@H]3O)cc2c(C)c2c1[nH]c1ccc(O)cc12.[Br-] (stereo in doubt; 64a)"
endpoint_value = 88


Below: the item to evaluate.
Incoming: Hello, I am looking for reported ILS with Mus musculus for Cc1c2cc[n+]([C@H]3O[C@@H](CO)[C@H](O)[C@@H](O)[C@@H]3O)cc2c(C)c2c1[nH]c1ccc(O)cc12.[Br-] (stereo in doubt; 63a) . Could you help?
Outgoing: 52

---

Test system: Mus musculus
assay-remarks: Effect on ip implanted syngeneic B16 melanoma by ip administration for 9 days at 5 mg/kg was measured as increase in mean life span
conditions-used: 216 h
Known ILS at 5 mg/kg of a selection of compounds

A selection of reference data follows.
[[record]]
compound = "Cc1c2cc[n+]([C@@H]3OC[C@@H](O)[C@H](O)[C@@H]3O)cc2c(C)c2c1[nH]c1ccc(O)cc12.[Cl-]"
measurement_name = "ILS at 5 mg/kg"
endpoint_value = "41%"

[[record]]
compound = "Cc1c2cc[n+]([C@@H]3O[C@H](CO)[C@H](O)[C@H]3O)cc2c(C)c2c1[nH]c1ccc(O)cc12.[Cl-]"
measurement_name = "ILS at 5 mg/kg"
endpoint_value = "42%"

[[record]]
compound = "Cc1c2cc[n+]([C@@H]3OC[C@H](O)[C@H](O)[C@H]3O)cc2c(C)c2c1[nH]c1ccc(O)cc12.[Br-]"
measurement_name = "ILS at 5 mg/kg"
endpoint_value = "44%"


Incoming: I have this compound here, Cc1c2cc[n+]([C@H]3O[C@@H](C)[C@@H](O)[C@@H](O)[C@@H]3O)cc2c(C)c2c1[nH]c1ccc(O)cc12.[Br-] (stereo in doubt; 56) , and I need its recorded ILS at 5 mg/kg.
Outgoing: 50%

Incoming: I have this compound here, Cc1c2cc[n+]([C@@H]3O[C@H](CO)[C@H](O)[C@@H]3O)cc2c(C)c2c1[nH]c1ccc(O)cc12.[Cl-] (stereo in doubt; 43a) , and I need its recorded ILS at 5 mg/kg.
Outgoing: 39%

---

System: Mus musculus
assay-remarks: Number of survivors out of 6 ip implanted L1210 leukemia mouse, tested after 80 days at 30 mg/kg
Type: functional
conditions-used: route intraperitoneal, 30 mg/kg
measurement-name: Cures
Just the number, please, no unit after it.

A selection of reference data follows.
[[record]]
molecule = "Cc1c2cc[n+]([C@H]3O[C@@H](C)[C@@H](O)[C@@H](O)[C@@H]3O)cc2c(C)c2c1[nH]c1ccc(O)cc12.[Br-] (stereo in doubt; 56)"
measurement_name = "Cures"
endpoint_value = 4

[[record]]
molecule = "Cc1c2cc[n+]([C@@H]3OC[C@@H](O)[C@@H](O)[C@H]3O)cc2c(C)c2c1[nH]c1ccc(O)cc12.[Br-] (stereo in doubt; 48a)"
measurement_name = "Cures"
endpoint_value = 0


Incoming: Hello, I am looking for reported Cures with Mus musculus for Cc1c2cc[n+]([C@@H]3OC[C@@H](O)[C@@H](O)[C@H]3O)cc2c(C)c2c1[nH]c1ccc(O)cc12.[Br-] (stereo in doubt; 50a) . Could you help?
Outgoing: 5

Incoming: Hello, I am looking for reported Cures with Mus musculus for Cc1c2cc[n+]([C@@H]3OC[C@@H](O)[C@@H](O)[C@H]3O)cc2c(C)c2c1[nH]c1ccc(O)cc12.[Br-] (stereo in doubt; 48b) . Could you help?
Outgoing: 6

Incoming: Hello, I am looking for reported Cures with Mus musculus for Cc1c2cc[n+]([C@H]3O[C@@H](C)[C@@H](O)[C@@H](O)[C@@H]3O)cc2c(C)c2c1[nH]c1ccc(O)cc12.[Br-] (stereo in doubt; 53b) . Could you help?
Outgoing: 3

---

Known Cures of a selection of compounds
Tested on: Mus musculus
assay-remarks: Number of survivors out of 6 ip implanted L1210 leukemia mouse, tested after 80 days at 30 mg/kg
Assay type: functional
conditions-used: route intraperitoneal
Just the number, please, no unit after it.

[[record]]
compound = "Cc1c2cc[n+]([C@@H]3OC[C@@H](O)[C@H](O)[C@@H]3O)cc2c(C)c2c1[nH]c1ccc(O)cc12.[Cl-]"
measurement_target = "Mus musculus"
endpoint_value = 5

[[record]]
compound = "COc1ccc2[nH]c3c(C)c4cc[n+](C5O[C@@H](C)[C@H](O)[C@@H](O)[C@H]5O)cc4c(C)c3c2c1.[Br-] (some centres not stated)"
measurement_target = "Mus musculus"
endpoint_value = 0

[[record]]
compound = "Cc1c2cc[n+]([C@@H]3OC[C@H](O)[C@H](O)[C@H]3O)cc2c(C)c2c1[nH]c1ccc(O)cc12.[Br-]"
measurement_target = "Mus musculus"
endpoint_value = 5

[[record]]
compound = "Cc1c2cc[n+]([C@@H]3O[C@@H](C)[C@H](O)[C@H]3O)cc2c(C)c2c1[nH]c1ccc(O)cc12.[Cl-]"
measurement_target = "Mus musculus"
endpoint_value = 1

[[record]]
compound = "Cc1c2cc[n+]([C@@H]3O[C@H](C)[C@H](O)[C@H](O)[C@H]3O)cc2c(C)c2c1[nH]c1ccccc12.[Br-]"
measurement_target = "Mus musculus"
endpoint_value = 0


Incoming: Hello, I am looking for reported Cures with Mus musculus for Br.CC(=O)[O-].Cc1c2cc[n+](C3O[C@H](C)[C@@H](O)[C@@H]3O)cc2c(C)c2c1[nH]c1ccc(O)cc12 (some centres not stated) . Could you help?
Outgoing: 1

Incoming: Hello, I am looking for reported Cures with Mus musculus for COc1ccc2[nH]c3c(C)c4cc[n+](C5O[C@@H](CO)[C@H](O)[C@@H]5O)cc4c(C)c3c2c1.[Br-] (some centres not stated) . Could you help?
Outgoing: 0

---

System: Mus musculus
assay-remarks: Antitumor activity against ip implanted L1210 leukemia in mouse after ip administration of 1.25 mg/kg for 5 days expressed as increase in mean life span
Format: functional
conditions-used: 120 h, route intraperitoneal
measurement-name: ILS at 1.25 mg/kg
Note: a bare number is incomplete; add the unit.

A selection of reference data follows.
[[record]]
compound = "Cc1c2cc[n+]([C@H]3O[C@@H](C)[C@@H](O)[C@@H](O)[C@@H]3O)cc2c(C)c2c1[nH]c1ccc(O)cc12.[Br-] (stereo in doubt; 56)"
measurement_target = "Mus musculus"
measurement_name = "ILS at 1.25 mg/kg"
endpoint_value = "56%"

[[record]]
compound = "Cc1c2cc[n+]([C@@H]3O[C@H](CO)[C@H](O)[C@H]3O)cc2c(C)c2c1[nH]c1ccc(O)cc12.[Cl-]"
measurement_target = "Mus musculus"
measurement_name = "ILS at 1.25 mg/kg"
endpoint_value = "55%"

[[record]]
compound = "Cc1c2cc[n+]([C@@H]3OC[C@@H](O)[C@H](O)[C@@H]3O)cc2c(C)c2c1[nH]c1ccc(O)cc12.[Cl-]"
measurement_target = "Mus musculus"
measurement_name = "ILS at 1.25 mg/kg"
endpoint_value = "46%"

[[record]]
compound = "Cc1c2cc[n+]([C@@H]3OC[C@H](O)[C@H](O)[C@H]3O)cc2c(C)c2c1[nH]c1ccc(O)cc12.[Br-]"
measurement_target = "Mus musculus"
measurement_name = "ILS at 1.25 mg/kg"
endpoint_value = "37%"


Below: the item to evaluate.
Incoming: I have this compound here, Cc1c2cc[n+]([C@@H]3O[C@H](CO)[C@H](O)[C@@H]3O)cc2c(C)c2c1[nH]c1ccc(O)cc12.[Cl-] (stereo in doubt; 43a) , and I need its recorded ILS at 1.25 mg/kg.
Outgoing: 46%

---

System: Mus musculus
assay-remarks: Antitumor activity against ip implanted L1210 leukemia in mouse after ip administration of 10 mg/kg for 5 days expressed as increase in mean life span
Format: functional
conditions-used: Mus musculus, L1210, ip, 120 h, route intraperitoneal
measurement-name: ILS at 10 mg/kg

[[record]]
compound = "Cc1c2cc[n+]([C@H]3O[C@@H](CO)[C@H](O)[C@@H]3O)cc2c(C)c2c1[nH]c1ccc(O)cc12.[Br-]"
measurement_name = "ILS at 10 mg/kg"
endpoint_value = "> 391%"

[[record]]
compound = "Cc1c2cc[n+]([C@H]3O[C@@H](C)[C@@H](O)[C@@H](O)[C@@H]3O)cc2c(C)c2c1[nH]c1ccc(O)cc12.[Br-] (stereo in doubt; 56)"
measurement_name = "ILS at 10 mg/kg"
endpoint_value = "107%"

[[record]]
compound = "COc1ccc2[nH]c3c(C)c4cc[n+](C5OC(CO)C(O)C(O)C5O)cc4c(C)c3c2c1.[Br-] (stereo not drawn)"
measurement_name = "ILS at 10 mg/kg"
endpoint_value = "14%"

[[record]]
compound = "Cc1c2cc[n+]([C@H]3OC[C@@H](O)[C@H](O)[C@@H]3O)cc2c(C)c2c1[nH]c1ccc(O)cc12.[Cl-]"
measurement_name = "ILS at 10 mg/kg"
endpoint_value = "> 651%"

[[record]]
compound = "Cc1c2cc[n+](C3CC(O)C(CO)O3)cc2c(C)c2c1[nH]c1ccc(O)cc12.[Cl-] (stereo not drawn)"
measurement_name = "ILS at 10 mg/kg"
endpoint_value = "> 390%"


Incoming: I have this compound here, Cc1c2cc[n+]([C@@H]3OC[C@H](O)[C@H](O)[C@H]3O)cc2c(C)c2c1[nH]c1ccc(O)cc12.[Br-] , and I need its recorded ILS at 10 mg/kg.
Outgoing: 113%

Incoming: I have this compound here, Cc1c2cc[n+]([C@@H]3O[C@H](CO)[C@H](O)[C@H]3O)cc2c(C)c2c1[nH]c1ccc(O)cc12.[Cl-] , and I need its recorded ILS at 10 mg/kg.
Outgoing: > 272%

Incoming: I have this compound here, Cc1c2cc[n+]([C@@H]3OC[C@@H](O)[C@@H](O)[C@H]3O)cc2c(C)c2c1[nH]c1ccc(O)cc12.[Br-] , and I need its recorded ILS at 10 mg/kg.
Outgoing: > 396%

Just for reference, ChEMBL document CHEMBL1124260 is where these values come from.
